test: NCI Yeast Anticancer Drug Screen. Data for the bub3 strain (AID 167); settings: S. cerevisiae bub3 mutant strain, at 50.0 µM
The panel holds about 79,000 compounds, 15% with a hit somewhere; the sample as a whole holds those more often. Activity calls are given as the source filed them. Cut-off read from the data, not from the text of the source: active = growth inhibition above about 70%; inactive = the rest.
Would you mind answering with one of these outcomes? Yes for active, No for inactive

>>> category_label("CC(=O)N(C1=C(Cl)C(=O)c2ccccc2C1=O)c1ccc(F)cc1")
"Yes"
>>> category_label("CCCCC(CCCC)=NNC(=S)SC")
"Yes"
>>> category_label("C=C1OC(=O)C(=O)N1CC(=O)O")
"No"
>>> category_label("C=[CH][Sn]([CH]=C)([S]c1cccc2cccnc12)[S]c1cccc2cccnc12")
"Yes"
>>> category_label("CCCCCN(CCCCC)CC(O)c1cccc2cc(Cl)ccc12 (centres undefined)")
"Yes"
>>> category_label("COC12C(COC(N)=O)C3=C(C(=O)C(C)=C(N)C3=O)N1CC1C2N1C(=O)c1ccc(Cl)c(Cl)c1 (centres undefined)")
"Yes"
>>> category_label("COc1ccccc1NC(=O)C1=C(C)NC(C)=C(C(=O)Nc2ccccc2OC)C1c1ccc(OC)c(OC)c1")
"No"
>>> category_label("CC(C)(C)c1ccc(-c2nc3ccccc3c(=O)o2)cc1")
"Yes"

# input Can you look up the reported call for `CCCCCCCCCCCCCCC[C@@H](O)C[N+](C)(C)CCO` for me?
# output Yes
